- ASSAYED SYSTEM: human glucocorticoid receptor (Homo sapiens)
- Construct: purified human recombinant full-length glucocorticoid receptor (2 nM); purchased Invitrogen Part #2893
- Sequence (P04150 whole entry): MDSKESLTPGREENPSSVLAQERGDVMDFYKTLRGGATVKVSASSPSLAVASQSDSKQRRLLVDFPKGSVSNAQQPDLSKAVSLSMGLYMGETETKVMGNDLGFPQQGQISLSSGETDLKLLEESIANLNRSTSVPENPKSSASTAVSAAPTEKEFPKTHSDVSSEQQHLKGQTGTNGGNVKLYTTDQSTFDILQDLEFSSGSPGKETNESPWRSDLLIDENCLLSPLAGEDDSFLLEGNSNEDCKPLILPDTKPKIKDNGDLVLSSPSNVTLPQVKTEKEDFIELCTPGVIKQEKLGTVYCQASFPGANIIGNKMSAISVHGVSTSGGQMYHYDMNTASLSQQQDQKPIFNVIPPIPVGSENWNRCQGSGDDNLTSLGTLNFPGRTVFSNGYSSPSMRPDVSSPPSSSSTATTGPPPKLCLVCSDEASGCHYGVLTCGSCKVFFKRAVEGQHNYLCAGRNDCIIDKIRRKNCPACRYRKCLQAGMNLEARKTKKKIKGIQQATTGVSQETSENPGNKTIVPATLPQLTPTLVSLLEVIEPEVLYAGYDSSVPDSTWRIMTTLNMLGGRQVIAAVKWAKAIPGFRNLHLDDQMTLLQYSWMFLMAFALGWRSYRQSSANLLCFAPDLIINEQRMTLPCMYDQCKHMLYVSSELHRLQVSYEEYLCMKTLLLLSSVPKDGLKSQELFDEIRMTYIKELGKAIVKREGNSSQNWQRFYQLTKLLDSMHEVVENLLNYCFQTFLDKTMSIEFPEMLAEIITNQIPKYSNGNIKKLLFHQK
- PROTOCOL DESCRIPTION: Glucocorticoid Receptor Binding Assay (I), fluorescence polarization competitor kit (Fluormone GS Red)
- CONDITION INFO: purified human recombinant full-length GR 2 nM, 1 nM Fluormone GS Red, FP; read-out: GR (Ki, nM) (GR Binding Assay (I))
PROPERTY MEASURED: Ki (nM)

{"MOLECULE": "O=C(CC(c1ccccc1)c1ccc2c(cnn2-c2ccc(F)cc2)c1)Nc1nncs1 (single isomer, unassigned) [136-enant A]", "PROPERTY MEASURED": "Ki", "UNIT SPEC": "nM", "EXPERIMENTAL VALUE": 23}

P: CC(C)(C(=O)Nc1nncs1)C(c1ccccc1)c1ccc2c(cnn2CCCCO)c1 (centres unmarked)
Q: CC(C)(C(=O)Nc1sccc1C#N)C(c1ccccc1)c1ccc2c(cnn2-c2ccc(F)cc2)c1 (centres unmarked)
R: CC(C)(C(=O)Nc1nncs1)C(c1ccccc1)c1ccc2c(cnn2-c2ccc(C(F)(F)F)cc2)c1 (centres unmarked)
S: CC(C)(C(=O)Nc1nccs1)C(c1ccccc1)c1ccc2c(cnn2CCO)c1 (centres unmarked)
Hey, can you sort those molecules up there by Ki, smallest first? Please list the labels according to the requested order. P, S, Q, R
(P: 9.3 nM, S: 20 nM, Q: 47 nM, R: 85 nM)
